Target: HLA-A*01:01
Experiment: IEDB peptide-MHC binding, purified MHC/competitive/radioactivity; filed as Kd, often an IC50 or EC50 that approximates it; bounds were set here for any values at or beyond the usual limits of such assays
Conditions: source organism: SARS coronavirus Tor2
The following sequences are shown together with reported Kd values.

Some solved cases for reference:
TYVPSQERNF; ≥ 70.4 µM
AYLRKHFSM; ≥ 78.1 µM

Lab request: please report Kd under test system HLA-A*01:01 for GYKNVRITF
≥ 78.1 µM

Lab request: please report Kd under test system HLA-A*01:01 for AEDMLNPNY
≥ 87.7 µM

Lab request: please report Kd under test system HLA-A*01:01 for LQSLENVAY
≥ 42.3 µM

Lab request: please report Kd under test system HLA-A*01:01 for GPDDQIGYY
≥ 79.4 µM

The measurements presented in this section are drawn from the Immune Epitope Database (IEDB).
